The values you see were collected from patent US20260250381A1.

Biological target: T1, human TREM2 (human) (UniProt Q9NZC2)
T1 sequence (looked up): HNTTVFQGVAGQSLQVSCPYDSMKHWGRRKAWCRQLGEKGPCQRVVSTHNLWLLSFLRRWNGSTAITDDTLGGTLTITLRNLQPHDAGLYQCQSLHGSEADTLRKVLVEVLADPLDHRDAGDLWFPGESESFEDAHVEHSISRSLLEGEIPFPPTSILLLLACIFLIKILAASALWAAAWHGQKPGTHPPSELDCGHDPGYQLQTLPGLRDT
Test: 1st screen, 10 nM Ab
The following binders are listed with their measured Binding Signal (fold over 6E7 parental antibody) values.
# value in fold; strip the unit string

1. 6E7 variant V26 (antibody, V domains shown) VH: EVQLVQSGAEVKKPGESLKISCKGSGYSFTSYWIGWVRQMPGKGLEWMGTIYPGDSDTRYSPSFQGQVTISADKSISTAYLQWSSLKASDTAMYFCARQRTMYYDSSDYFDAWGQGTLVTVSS VL: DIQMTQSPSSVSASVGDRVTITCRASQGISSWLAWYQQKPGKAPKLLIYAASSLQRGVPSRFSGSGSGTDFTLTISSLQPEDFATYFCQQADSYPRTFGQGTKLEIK ... 3.57
2. 6E7 variant V24 (antibody, V domains shown) VH: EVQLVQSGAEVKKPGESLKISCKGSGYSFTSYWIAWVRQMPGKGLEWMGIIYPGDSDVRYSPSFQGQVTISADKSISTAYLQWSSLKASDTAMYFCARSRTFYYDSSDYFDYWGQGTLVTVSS VL: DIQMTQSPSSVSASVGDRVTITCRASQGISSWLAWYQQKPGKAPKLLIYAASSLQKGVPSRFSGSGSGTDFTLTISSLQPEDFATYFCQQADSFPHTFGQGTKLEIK ... 2.64
3. 6E7 variant V38 (antibody, V domains shown) VH: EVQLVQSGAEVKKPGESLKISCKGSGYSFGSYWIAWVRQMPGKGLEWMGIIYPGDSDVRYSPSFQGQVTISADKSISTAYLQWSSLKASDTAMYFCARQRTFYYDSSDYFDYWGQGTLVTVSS VL: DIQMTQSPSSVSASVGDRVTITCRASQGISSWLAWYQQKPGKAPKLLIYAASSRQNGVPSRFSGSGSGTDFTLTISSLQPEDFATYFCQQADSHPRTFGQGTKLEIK ... 4.34
4. 6E7 variant V3 (antibody, V domains shown) VH: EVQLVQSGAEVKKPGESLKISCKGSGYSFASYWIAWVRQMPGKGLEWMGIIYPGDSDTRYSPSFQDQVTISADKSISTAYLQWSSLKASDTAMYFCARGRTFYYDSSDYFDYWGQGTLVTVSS VL: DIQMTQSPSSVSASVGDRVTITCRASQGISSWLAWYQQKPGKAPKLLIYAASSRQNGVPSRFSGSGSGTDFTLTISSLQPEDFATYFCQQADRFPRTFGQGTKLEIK ... 1.97

Record 6E7 variant V74 (antibody, V domains shown) VH: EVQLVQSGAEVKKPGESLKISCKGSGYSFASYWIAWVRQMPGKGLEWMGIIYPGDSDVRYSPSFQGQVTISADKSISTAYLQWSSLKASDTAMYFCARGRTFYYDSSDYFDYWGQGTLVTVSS VL: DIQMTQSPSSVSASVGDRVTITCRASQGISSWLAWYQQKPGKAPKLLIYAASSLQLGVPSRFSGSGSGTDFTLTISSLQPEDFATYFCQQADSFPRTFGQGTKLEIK . Reported Binding Signal (fold over 6E7 parental antibody): 3.94
